Assignment: determine reported Helicase Inhibition [%] 20 µM (PS Inhibition Helicase [%]) for the given compounds.
# system: UniProtKB P0DTD1
# assay method text: biochemical
# Assay type: biochemical
Answers are plain numbers, in %.

compound | measurement
O=C(O)c1ccccc1Nc1ccc(CCc2ccc(Cl)c(Cl)c2)cc1 [PD-118057] | 7.76
O=c1c(O)c(-c2ccc(O)cc2O)oc2cc(O)cc(O)c12 [morin hydrate (aurantica), morin hydrate] | 39.33

Look at each compound and report its Helicase Inhibition [%] 20 µM (PS Inhibition Helicase [%]).
1. CC(C)c1ccccc1Cc1cc(C(=O)Nc2ccc(S(=O)(=O)c3ccccc3C(C)(C)C)cc2)c(O)c(O)c1O [TW-37]
2. OC[C@H]1O[C@H]([S-])[C@H](O)[C@@H](O)[C@@H]1O.[Au+] [aurothioglucose]
3. O=C1OC2(c3cc(I)c(O)c(I)c3Oc3c2cc(I)c(O)c3I)c2c(Cl)c(Cl)c(Cl)c(Cl)c21 [rose-bengal-lactone]

Solution:
3.76
100.73
−2.61

Look at each compound and report its Helicase Inhibition [%] 20 µM (PS Inhibition Helicase [%]).
1. N#C/C(=C\c1ccc(O)c(O)c1)C(=O)OCCc1cccs1 [2-TEDC]
2. O=C(Nc1ccc2c(O)cc(S(=O)(=O)[O-])cc2c1)Nc1ccc2c(O)cc(S(=O)(=O)[O-])cc2c1.[Na+].[Na+]

Solution:
1: 8.66; 2: 84.75

###

# system: SARS-CoV-2 RdRp nsp12/7/8 complex (Severe acute respiratory syndrome coronavirus 2, UniProt P0DTD1)
# assay method text: biochemical
# Type: biochemical
# assay context: RdRp IC50 [µM]
Counter-ions that a name gives are not always drawn.
Assignment: determine reported IC50 for the given compounds.
Give bare numbers, in µM.

compound | unit descriptor | IC50
O=C(N/N=C/c1ccc([N+](=O)[O-])o1)c1cc([N+](=O)[O-])cc([N+](=O)[O-])c1O | µM | 11.5
COc1cc(NC(C)CCCN)c2ncccc2c1 (stereo not shown) [primaquine phosphate] | µM | 6.56
Cc1cc(N)c2ccccc2[n+]1CCCCCCCCCC[n+]1c(C)cc(N)c2ccccc21 [dequalinium chloride] | µM | 4.07
CCOc1ccc2nc3cc(N)ccc3c(N)c2c1 [ethacridine lactate] | µM | 9.96

Look at each compound and report its IC50.
1. OCCOCCN1CCN(C(c2ccccc2)c2ccc(Cl)cc2)CC1 (stereo not shown) [hydroxyzine pamoate]
2. C=C1c2cccc(O)c2C(=O)C2=C(O)[C@]3(O)C(=O)C(C(N)=O)=C(O)[C@@H](N(C)C)[C@@H]3[C@@H](O)[C@H]12 [methacycline hydrochloride]
3. CC1=NN(c2ccc(C)c(C)c2)C(=O)/C1=N\Nc1cccc(-c2cccc(C(=O)O)c2)c1O

Solution:
[16.5, 6.43, 4.29]

Look at each compound and report its IC50.
1. Cc1ccc(C(=O)Nc2ccc(S(=O)(=O)O)c3cc(S(=O)(=O)O)cc(S(=O)(=O)O)c23)cc1NC(=O)c1cccc(NC(=O)Nc2cccc(C(=O)Nc3cc(C(=O)Nc4ccc(S(=O)(=O)O)c5cc(S(=O)(=O)O)cc(S(=O)(=O)O)c45)ccc3C)c2)c1 [suramin hexasodium]
2. O=C(O)c1cc(/N=N/c2ccc(O)c(C(=O)O)c2)ccc1O [olsalazine sodium]
3. O=C(N/N=C/c1ccc(O)c(O)c1)c1cc2ccccc2cc1O
4. CN(C)[C@@H]1C(O)=C(C(N)=O)C(=O)[C@@]2(O)C(O)=C3C(=O)c4c(O)cccc4[C@@](C)(O)[C@H]3[C@H](O)[C@@H]12
5. O=c1c(O)c(-c2ccc(O)c(O)c2)oc2cc(O)ccc12

Solution:
1: 0.24; 2: 14.4; 3: 6.22; 4: 16.1; 5: 2.17
